- Assayed system: human topoisomerase II (Homo sapiens)
- Construct: Topo II was purified from late log phase suspension cultures of HeLa WIS; endogenous in cells; host or cells: HeLa WIS
- Sequence (P11388 whole entry): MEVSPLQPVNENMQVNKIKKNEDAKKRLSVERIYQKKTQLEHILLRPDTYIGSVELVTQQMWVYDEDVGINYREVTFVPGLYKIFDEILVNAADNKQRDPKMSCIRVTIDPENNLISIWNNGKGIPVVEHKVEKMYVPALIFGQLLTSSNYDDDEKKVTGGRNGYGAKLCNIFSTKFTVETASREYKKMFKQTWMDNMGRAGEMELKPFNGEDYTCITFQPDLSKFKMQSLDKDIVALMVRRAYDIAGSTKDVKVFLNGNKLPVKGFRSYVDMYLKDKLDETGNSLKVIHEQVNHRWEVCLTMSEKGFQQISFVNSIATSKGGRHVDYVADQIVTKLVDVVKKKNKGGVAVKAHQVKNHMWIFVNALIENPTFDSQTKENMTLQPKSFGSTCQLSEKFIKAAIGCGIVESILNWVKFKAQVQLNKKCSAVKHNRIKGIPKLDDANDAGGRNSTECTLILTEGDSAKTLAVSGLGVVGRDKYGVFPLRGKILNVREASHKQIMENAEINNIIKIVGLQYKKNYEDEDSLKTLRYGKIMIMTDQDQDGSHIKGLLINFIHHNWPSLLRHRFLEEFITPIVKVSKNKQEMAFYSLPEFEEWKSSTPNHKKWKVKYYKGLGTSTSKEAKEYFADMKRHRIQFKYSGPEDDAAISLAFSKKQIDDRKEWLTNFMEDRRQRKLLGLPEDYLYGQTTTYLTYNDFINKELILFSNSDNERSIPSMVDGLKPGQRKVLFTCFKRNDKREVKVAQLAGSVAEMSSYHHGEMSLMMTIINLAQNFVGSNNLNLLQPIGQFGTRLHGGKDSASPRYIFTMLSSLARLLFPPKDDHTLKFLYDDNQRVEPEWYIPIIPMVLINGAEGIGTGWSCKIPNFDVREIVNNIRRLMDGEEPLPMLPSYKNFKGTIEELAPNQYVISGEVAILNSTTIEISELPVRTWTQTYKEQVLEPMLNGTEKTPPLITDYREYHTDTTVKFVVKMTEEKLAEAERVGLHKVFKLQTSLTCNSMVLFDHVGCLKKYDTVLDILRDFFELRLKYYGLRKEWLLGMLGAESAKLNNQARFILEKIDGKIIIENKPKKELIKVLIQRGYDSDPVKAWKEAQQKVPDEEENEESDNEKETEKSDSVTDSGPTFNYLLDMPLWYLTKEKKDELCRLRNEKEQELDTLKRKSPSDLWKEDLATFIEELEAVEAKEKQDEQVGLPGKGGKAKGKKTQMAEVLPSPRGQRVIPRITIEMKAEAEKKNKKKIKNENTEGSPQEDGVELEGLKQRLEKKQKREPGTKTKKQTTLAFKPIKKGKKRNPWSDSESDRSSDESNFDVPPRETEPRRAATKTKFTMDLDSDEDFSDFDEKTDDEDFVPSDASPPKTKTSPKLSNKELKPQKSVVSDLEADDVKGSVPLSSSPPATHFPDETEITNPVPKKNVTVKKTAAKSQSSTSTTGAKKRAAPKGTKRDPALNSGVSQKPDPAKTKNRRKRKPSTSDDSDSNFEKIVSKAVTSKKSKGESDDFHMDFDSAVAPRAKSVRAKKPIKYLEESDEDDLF
- Assay name: Mammalian topoisomerase II inhibition assay (topo II covalently attached to DNA, relative to mAMSA)
- Assay type: biochemical
- Stated conditions: conc. achieving 50% of maximal effect of mAMSA; topo II from HeLa cells; read-out: topo II inh. EC50
In this section we review reported pEC50 values for a set of compounds.
# reply with the number alone; pEC50 is -log10 of concentration in mol/L

Completed entries (count: 3):
Cc1cc(-c2c(F)cc3c4nn(C5CCNCC5)c(=O)c-4cn(C4CC4)c3c2F)cc(C)n1; 5.25
Cc1ccc(-n2nc3c4cc(F)c(-c5cc(C)nc(C)c5)c(F)c4n(C4CC4)cc-3c2=O)cc1; 5.05
Cc1cc(-c2c(F)cc3c4nn(C5CCC(C)CC5)c(=O)c-4cn(C4CC4)c3c2F)cc(C)n1 (stereo not drawn); 5.51

Q) What value of pEC50 on human topoisomerase II (Homo sapiens) does Cc1cc(-c2c(F)cc3c4nn(CC5CCCCC5)c(=O)c-4cn(C4CC4)c3c2F)cc(C)n1 have?
A) 5.09

Q) What value of pEC50 on human topoisomerase II (Homo sapiens) does Cc1cc(-c2c(F)cc3c4nn(-c5ccc(O)cc5)c(=O)c-4cn(C4CC4)c3c2F)cc(C)n1 have?
A) 5.31

Q) What value of pEC50 on human topoisomerase II (Homo sapiens) does COc1ccccc1-n1nc2c3cc(F)c(-c4cc(C)nc(C)c4)c(F)c3n(C3CC3)cc-2c1=O have?
A) 5.30

Q) What value of pEC50 on human topoisomerase II (Homo sapiens) does Cc1cc(-c2c(F)cc3c4nn(C5CCCCC5)c(=O)c-4cn(C4CC4)c3c2F)cc(C)n1 have?
A) 6.05

Q) What value of pEC50 on human topoisomerase II (Homo sapiens) does Cc1cc(-c2c(F)cc3c4nn(-c5ccccc5)c(=O)c-4cn(C4CC4)c3c2F)cc(C)n1 have?
A) 5.57

Q) What value of pEC50 on human topoisomerase II (Homo sapiens) does Cc1cc(-c2c(F)cc3c4nn(Cc5ccccc5)c(=O)c-4cn(C4CC4)c3c2F)cc(C)n1 have?
A) 5.43
